# Test system: SK-MEL-2 melanoma
# experiment summary: NCI-60 one-dose screen, 48 h (100 = growth as untreated, 0 = no growth, -100 = all killed)
# setup conditions: 10 µM unless noted
The panel holds about 83,000 compounds, 20% with a hit somewhere; the sample as a whole holds those more often.
reported endpoint: growth (%)
# value in %; strip the unit string

Lookup: Look up growth for this molecule: `CN1CCN(c2ccc(NC(=O)c3cncnc3Nc3ccc4c(ccn4Cc4cccc(F)c4)c3)cc2)CC1`
Found: 98.1

Lookup: What do you have for `O=C(Nc1ccccc1)c1sc(-c2ccccc2)cc1O` ?
Found: 105

Lookup: What about this molecule? `O=C(Nc1nc(C(=O)N2CCN(C(c3ccccc3)c3ccccc3)CC2)cs1)c1ccc(NC2CCCCC2)c([N+](=O)[O-])c1`
Found: 104

More entries:
Lookup: // query growth value for entry CCN(CC)CCCC(C)Nc1ccc2cc(OC)ccc2n1 (stereo not given)
Found: 116

Lookup: Now try `CCc1cccc(Sc2cc(C(=O)N3Cc4ccc(OCCN(C)C)cc4C3)ccc2O)c1` .
Found: 88.2
